targetDesc: T1, Human MCP-1 (MCAF) (human, UniProt P13500 24-99)
T1 construct: bought recombinant chemokine
T1 sequence (P13500 24-99 limits assumed): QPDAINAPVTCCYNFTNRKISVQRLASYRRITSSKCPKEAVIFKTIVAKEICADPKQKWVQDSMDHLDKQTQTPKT
assayNotes: Bound chemokines (at least); screen vs control proteins
measurementKind: binding result

[[record]]
binder = "LDYPIPQTVLHH [BKT-P46]"
measurementkind = "binding result"
endpointvalue = "binds"

[[record]]
binder = "GDFNSGHHTTTR [BKT-P27]"
measurementkind = "binding result"
endpointvalue = "binds"

[[record]]
binder = "HHTWDTRIWQAF [BKT-P55]"
measurementkind = "binding result"
endpointvalue = "binds"

[[record]]
binder = "TRLVPSRYYHHP [BKT-P47]"
measurementkind = "binding result"
endpointvalue = "binds"

